Target: T1, human Trop-2 expressed on cell surface (human, UniProt P09758 27-323)
T1 sequence (looked up): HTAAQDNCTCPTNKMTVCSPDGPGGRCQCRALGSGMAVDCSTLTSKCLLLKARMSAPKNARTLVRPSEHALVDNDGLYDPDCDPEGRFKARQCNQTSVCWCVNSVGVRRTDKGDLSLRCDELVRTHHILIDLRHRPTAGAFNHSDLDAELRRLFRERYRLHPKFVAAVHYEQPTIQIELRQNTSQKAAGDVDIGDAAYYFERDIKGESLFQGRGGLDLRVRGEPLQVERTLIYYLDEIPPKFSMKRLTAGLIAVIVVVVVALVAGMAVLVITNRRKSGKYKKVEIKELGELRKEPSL
Experiment: cell-based or functional assay
measured endpoint: EC50 of ADCC (NFAT-CD16 reporter), MCF-7 (nM)
Give the value in nM but do not write nM after it.

Reference set, count: 2
{"binder": "10A9 (antibody, V domains shown, Rabbit-derived clone; LEM construct: VH + rabbit IgG CH1 + human IgG1 CH2-CH3) VH: QSLEESGGDLVQPGASLTLTCKASGFDLNNYAMLWVRQAPGKGLEWIGCIYISGGTTYFASWATGRFAISKTSSTTVTLQMTSLTAADTATYFCARDDGTTSYYLNLWGPGTLVTVSS VL: YDMTQTPASVSAAVGGTVTIKCQASEDIYSLLAWYQQKPGQPPKLLIYGASNLESGVPSRFKGSGSGTEYTLTISDLECDDAATYYCQQAYTIGNIDNAFGGGTEVVVK", "value unit": "nM", "EC50 of ADCC (NFAT-CD16 reporter), MCF-7": 0.32}
{"binder": "5D4-1 (antibody, V domains shown) VH: QQLEESGGGLVKPEGSLTLTCKGSGFDFSGTYWMWWVRQAPGKGLEWIAPIYVGSGSSTYYASWAKGRFTISSTSSTAVTLQATSLTAADTATYFCARGATNNVFMNYFNLWGPGTLVTVSS VL: FEMTQTPSSVSEPVGGTVTIKCQASEDISSNLGWYQQKPGQPPKLLIYGASTLASGVPSRFKGSGSGTEFTLTISDLEPADAATYYCQTSYYIDDGVNGFGGGTEVVVK", "value unit": "nM", "EC50 of ADCC (NFAT-CD16 reporter), MCF-7": 0.61}

Pending binder:
For this binder ( 9F7 (antibody, V domains shown, Rabbit-derived clone; LEM construct: VH + rabbit IgG CH1 + human IgG1 CH2-CH3) VH: QEQLKESGGGLVQPGGSLTLSCKASGFDFNNYGVSWVRQAPGKGLEWIGYIYPAYHNTYYATWVNGRFTISSHNAQNTLYLQLNTLTAADTATYFCARDTGSTDYNFNLWGPGTLVTVSS VL: DVVMTQTPASVEVAVGGTVTIKCQASEDIESYLAWYQQKPGQPPKLLIYEASKLASGVSSRFSGGGYGTEFTLTISGVECADAATYYCQQALTVGNVDNPFGGGSEVVVK ), measured EC50 of ADCC (NFAT-CD16 reporter), MCF-7 is 0.18
